Molecular target: Muscarinic acetylcholine receptor M2 (Homo sapiens) (UniProt P08172)
Sequence (whole entry): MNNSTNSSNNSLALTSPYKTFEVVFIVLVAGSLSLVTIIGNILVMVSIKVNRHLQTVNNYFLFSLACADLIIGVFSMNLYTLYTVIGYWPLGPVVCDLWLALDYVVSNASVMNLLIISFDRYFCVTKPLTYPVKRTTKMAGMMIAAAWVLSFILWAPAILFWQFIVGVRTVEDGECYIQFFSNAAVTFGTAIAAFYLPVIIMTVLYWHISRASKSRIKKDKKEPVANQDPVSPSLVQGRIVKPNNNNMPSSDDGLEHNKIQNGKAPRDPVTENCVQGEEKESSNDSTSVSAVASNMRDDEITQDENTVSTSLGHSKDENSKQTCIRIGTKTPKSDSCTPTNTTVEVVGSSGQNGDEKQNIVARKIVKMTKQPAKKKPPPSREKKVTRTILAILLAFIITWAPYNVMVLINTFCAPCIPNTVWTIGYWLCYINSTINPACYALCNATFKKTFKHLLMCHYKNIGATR
Experiment: Antagonistic potency of compound towards Muscarinic acetylcholine receptor M2 in guinea pig left atrium
Format: functional, tissue-based
Conditions: Cavia porcellus; Cardiac atrium; target entry is the homologue from another species
Below: a set of entries, each annotated with reported pKb.
The reply should be a number, written without any unit.

CCN(CCCCCC(=O)N(C)CCCCCCCCN(C)C(=O)CCCCCN(CC)Cc1ccccc1Cl)Cc1ccccc1Cl: 5.61
CCN(CCCCCC(=O)N(C)CCCCCCCCN(C)C(=O)CCCCCN(CC)Cc1ccccc1OC)Cc1ccccc1OC: 5.65

Let us move to another entry and its pKb.
# query: pKb of entry COc1ccccc1CN(C)CCCCCC(=O)N(C)CCCCCCCCN(C)C(=O)CCCCCN(C)Cc1ccccc1OC
6.39

###

Here's what we have: IC50 numbers for Acetylcholinesterase (Homo sapiens).
State the answer as a number, implicitly in nM.

Use the examples below as a reference point.
CCN(CCCCCC(=O)N(C)CCCCCCCCN(C)C(=O)CCCCCN(CC)Cc1ccccc1OC)Cc1ccccc1OC: 18.6
CC[N+](C)(CCCCCC(=O)N(C)CCCCCCCCN(C)C(=O)CCCCC[N+](C)(CC)Cc1ccccc1C)Cc1ccccc1C (centres undefined): 16.6
COc1ccccc1CN(CCCCCC(=O)N(C)CCCCCCCCN(C)C(=O)CCCCCN(Cc1ccccc1OC)C(C)C)C(C)C: 72.4

Below: the item to evaluate.
Reported IC50 for Acetylcholinesterase (Homo sapiens), given CCN(CCCCCC(=O)N(C)CCCCCCCCN(C)C(=O)CCCCCN(CC)Cc1ccccc1)Cc1ccccc1 ?
49

###

target: Acetylcholinesterase (Homo sapiens, UniProt P22303)
Sequence (P22303 whole entry): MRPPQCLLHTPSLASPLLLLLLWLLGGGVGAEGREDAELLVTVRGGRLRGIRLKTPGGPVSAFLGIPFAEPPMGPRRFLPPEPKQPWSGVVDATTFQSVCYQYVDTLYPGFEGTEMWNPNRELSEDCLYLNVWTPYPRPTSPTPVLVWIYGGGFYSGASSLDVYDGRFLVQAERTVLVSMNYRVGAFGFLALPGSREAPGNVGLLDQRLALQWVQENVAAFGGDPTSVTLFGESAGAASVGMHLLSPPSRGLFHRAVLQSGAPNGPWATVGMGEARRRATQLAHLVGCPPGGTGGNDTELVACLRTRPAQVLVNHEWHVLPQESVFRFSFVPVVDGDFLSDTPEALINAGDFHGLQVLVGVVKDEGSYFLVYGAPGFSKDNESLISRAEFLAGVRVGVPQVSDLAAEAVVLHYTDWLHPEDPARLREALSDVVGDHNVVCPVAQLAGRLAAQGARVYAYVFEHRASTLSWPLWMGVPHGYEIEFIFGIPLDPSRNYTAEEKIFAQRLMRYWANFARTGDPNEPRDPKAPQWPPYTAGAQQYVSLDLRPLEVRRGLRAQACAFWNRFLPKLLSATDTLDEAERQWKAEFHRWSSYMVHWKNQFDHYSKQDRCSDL
ASSAY READOUT: pIC50
# pIC50: negative log10 of molar concentration; output just the value

CC[N+](C)(CCCCCC(=O)N(C)CCCCCCCCN(C)C(=O)CCCCC[N+](C)(CC)Cc1ccccc1[N+](=O)[O-])Cc1ccccc1[N+](=O)[O-] (centres undefined): 7.90

Missing value: pIC50, Acetylcholinesterase (Homo sapiens, UniProt P22303), entry CC[N+](C)(CCCCCC(=O)N(C)CCCCCCCCN(C)C(=O)CCCCC[N+](C)(CC)Cc1ccccc1OC)Cc1ccccc1OC (centres undefined) . Fill in?
7.96

Checklist item: pIC50 tested on Acetylcholinesterase (Homo sapiens, UniProt P22303), entry CCN(CCCCCC(=O)N(C)CCCCCCCCN(C)C(=O)CCCCCN(CC)Cc1ccccc1[N+](=O)[O-])Cc1ccccc1[N+](=O)[O-] , value?
7.49

Record lookup: for Acetylcholinesterase (Homo sapiens, UniProt P22303), what pIC50 belongs to CCN(CCCCCC(=O)N(C)CCCCCCCCN(C)C(=O)CCCCCN(CC)Cc1ccccc1OC)Cc1ccccc1OC ?
7.79
